Overview of reported Luciferase assay (EC50) across a group of binders:
# measuredOn: human CD28 (human, UniProt P10747 19-220)
# assaySummary: cell-based or functional assay
Return type: number; implicit unit nM.

1h-79-1 (other) VL: DIQMTQSPSSLSASVGDRVTITCRASQPIGHSFGWYQQKPGKAPKLLIYWASTLQSGVPTRFSGSGSGTDFTLTISSLQPEDFATYYCQQMLRTPFTFGQGTKVEIKR = 418000
1h-239-847 (other) VL: DIQMTQSPSSLSASVGDRVTITCRASQSIYPFLEWYQQKPGKAPKLLIYFTSRLAYGVPSRFSGSGSGTDFTLTISSLQPEDFATYYCLQNVTNPATFSQGTKVEIRR = 8
1h-99-276 (other) VH: EVQLLESGGGLVQPGGSLRLSCAASGFTFNRANMSWARQAPGKGLEWVSWIEDTGTQTFYADSVKGRFTISRDNSKNTLYLQMNSLRAEDTAVYYCAKSPFGPLYGFDYRGQGTLVTVSS = 5

Turning to the following binder.
I'd like to know its Luciferase assay (EC50). The binder in question is 1h-99-263 (other) VH: EVQLLESGGGLVQPGGSLRLSCAASGFTFYKANMSWVRQAPGKGLEWVSWIEASGVQTFYADSVKGRFTISRDNSKNTLYLQMNSLRAEDTAVYYCAKSPFGPLYGFDYRGQGTLVTVSS 6
